All figures here come from BigSolDB 2.1.

conditions: in ethanol, 317.35 K
resultType: solubility (mole fraction)
Answer using only a numeral; do not append any unit.

INPUT: Look up solubility (mole fraction) for this molecule: Clc1ccc(SSc2ccc(Cl)cc2)cc1
OUTPUT: 0.00786

---

conditions: in acetone, 313.25 K
resultType: solubility (mole fraction)
Answer using only a numeral; do not append any unit.

INPUT: Look up solubility (mole fraction) for this compound: Clc1ccc(SSc2ccc(Cl)cc2)cc1
OUTPUT: 0.208

---

settings: in methanol, 307.65 K
resultType: solubility (mole fraction)
Answer using only a numeral; do not append any unit.

INPUT: Look up solubility (mole fraction) for this molecule: Clc1ccc(SSc2ccc(Cl)cc2)cc1
OUTPUT: 0.00061

---

details: in chloroform, 307.95 K
resultType: solubility (mole fraction)
Answer using only a numeral; do not append any unit.

INPUT: Look up solubility (mole fraction) for this compound: Clc1ccc(SSc2ccc(Cl)cc2)cc1
OUTPUT: 0.174

---

conditions: in acetone, 308.05 K
resultType: solubility (mole fraction)
Answer using only a numeral; do not append any unit.

INPUT: Look up solubility (mole fraction) for this compound: Clc1ccc(SSc2ccc(Cl)cc2)cc1
OUTPUT: 0.145

---

settings: in toluene, 317.55 K
resultType: solubility (mole fraction)
Answer using only a numeral; do not append any unit.

INPUT: Look up solubility (mole fraction) for this compound: Clc1ccc(SSc2ccc(Cl)cc2)cc1
OUTPUT: 0.114

---

settings: in toluene, 314.05 K
resultType: solubility (mole fraction)
Answer using only a numeral; do not append any unit.

INPUT: Look up solubility (mole fraction) for this compound: Clc1ccc(SSc2ccc(Cl)cc2)cc1
OUTPUT: 0.0864

---

details: in ethanol, 307.45 K
resultType: solubility (mole fraction)
Answer using only a numeral; do not append any unit.

INPUT: Look up solubility (mole fraction) for this molecule: Clc1ccc(SSc2ccc(Cl)cc2)cc1
OUTPUT: 0.000783
